pIC50 listing for selected compounds.
Molecular target: Full length human CDC7 protein co-expressed with DBF4 (Homo sapiens)
Construct: Full length human CDC7 protein co-expressed with DBF4; purchased SignalChem (China)
Sequence (O00311 whole entry): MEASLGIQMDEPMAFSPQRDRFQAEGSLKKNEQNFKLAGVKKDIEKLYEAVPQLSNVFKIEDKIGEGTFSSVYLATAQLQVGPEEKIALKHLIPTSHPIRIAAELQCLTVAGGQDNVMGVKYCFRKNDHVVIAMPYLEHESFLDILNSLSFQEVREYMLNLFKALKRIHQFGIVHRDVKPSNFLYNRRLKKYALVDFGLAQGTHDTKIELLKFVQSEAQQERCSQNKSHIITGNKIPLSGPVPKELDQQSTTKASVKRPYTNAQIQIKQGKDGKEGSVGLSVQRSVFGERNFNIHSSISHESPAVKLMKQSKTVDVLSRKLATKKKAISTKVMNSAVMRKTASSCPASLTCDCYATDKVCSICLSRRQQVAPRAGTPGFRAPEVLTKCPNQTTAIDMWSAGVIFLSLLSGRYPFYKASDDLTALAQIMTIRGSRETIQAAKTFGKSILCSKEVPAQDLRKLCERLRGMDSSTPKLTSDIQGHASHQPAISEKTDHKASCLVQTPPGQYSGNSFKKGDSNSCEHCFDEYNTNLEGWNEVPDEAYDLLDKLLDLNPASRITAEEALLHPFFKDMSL
Sequence (Q9UBU7 whole entry partner): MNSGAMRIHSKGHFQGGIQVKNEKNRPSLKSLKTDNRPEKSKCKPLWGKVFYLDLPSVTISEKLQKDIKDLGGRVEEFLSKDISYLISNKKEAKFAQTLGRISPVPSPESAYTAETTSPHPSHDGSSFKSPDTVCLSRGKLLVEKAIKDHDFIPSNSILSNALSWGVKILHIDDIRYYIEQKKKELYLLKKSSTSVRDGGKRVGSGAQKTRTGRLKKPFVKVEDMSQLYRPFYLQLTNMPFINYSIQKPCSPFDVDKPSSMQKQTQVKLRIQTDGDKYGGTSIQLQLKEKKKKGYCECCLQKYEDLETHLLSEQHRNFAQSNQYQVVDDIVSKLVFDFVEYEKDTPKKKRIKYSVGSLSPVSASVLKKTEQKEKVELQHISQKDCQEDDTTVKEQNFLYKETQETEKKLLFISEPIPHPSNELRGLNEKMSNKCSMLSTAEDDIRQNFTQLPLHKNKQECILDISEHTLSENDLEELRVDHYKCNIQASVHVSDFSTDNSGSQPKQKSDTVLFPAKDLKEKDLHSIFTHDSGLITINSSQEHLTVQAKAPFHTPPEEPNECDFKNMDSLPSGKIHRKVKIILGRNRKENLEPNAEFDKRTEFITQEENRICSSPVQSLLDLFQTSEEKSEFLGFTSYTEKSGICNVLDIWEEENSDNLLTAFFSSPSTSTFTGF
Assay: CDC7 kinase biochemical assay (ADP-Glo, PDKtide substrate)
Conditions: 0.1 nM CDC7/DBF4, 1 uM ATP, 10 uM PDKtide, 4 h; read-out: CDC7 ADP-Glo PDKtide IC50
pIC50: −log10 of the molar value.

Consider the following illustrative entries.
- COMPOUND: "CC1(C)NC(=O)c2sc(-c3c[nH]c4ncc(Cl)cc34)c3c2N1CCO3 [Compound 10]"
  pIC50: "8.00 to 9.00"
- COMPOUND: "O=C1N[C@@H](CO)CN2CCCc3c(-c4cn[nH]c4)sc1c32 [Compound 32]"
  pIC50: "> 9.00"

Req: Query (compound): C[C@H]1CN2C(=O)CCc3c(-c4cn[nH]c4)sc(c32)C(=O)N1 [Compound 29] ; field requested: pIC50
Resp: 8.00 to 9.00

Req: Please give the measured pIC50 for this compound: O=C1NCCN2c3c1sc(-c1cn[nH]c1)c3OC[C@H]2CNC(=O)C1CCC1 [Compound 58]
Resp: > 9.00

Req: I am curious: what pIC50 value has been reported for O=C1NC(C2CCCCO2)CN2CCCc3c(-c4cn[nH]c4)sc1c32 (single isomer, unassigned) [Compound 108] ?
Resp: > 9.00

Req: # query: pIC50 of entry CNC[C@H]1CNC(=O)c2sc(-c3cn[nH]c3)c3c2N1CCO3 [Compound 37]
Resp: > 9.00

Req: Return reported pIC50; argument: C[C@H]1CN2CCCc3c(-c4cn[nH]c4)sc(c32)C(=O)N1 [Compound 30]
Resp: > 9.00

Req: May I ask what pIC50 has been recorded for Cc1ccn(C[C@H]2CN3CCOc4c(-c5cn[nH]c5)sc(c43)C(=O)N2)n1 [Compound 43] ?
Resp: > 9.00

Req: Could you tell me which pIC50 is on file for C[C@H]1CN2CC(F)(F)Cc3c(-c4cn[nH]c4)sc(c32)C(=O)N1 [Compound 101] ?
Resp: > 9.00

Req: Find the recorded pIC50 belonging to Cc1ccnn1C[C@H]1CN2CCOc3c(-c4cn[nH]c4)sc(c32)C(=O)N1 [Compound 44] and report it.
Resp: > 9.00

Req: Consider the compound shown here: O=C1N[C@@H]([C@@H]2CCCCO2)CN2CC(F)(F)Cc3c(-c4cn[nH]c4)sc1c32 (single isomer, unassigned) [Compound 140] What is its recorded pIC50?
Resp: > 9.00

###

Biological target: Full length human CDC7 protein co-expressed with DBF4 (Homo sapiens)
Construct: Full length human CDC7 protein co-expressed with DBF4; purchased SignalChem (China)
Assay: CDC7 kinase biochemical assay (ADP-Glo, PDKtide substrate)
Conditions: 0.1 nM CDC7/DBF4, 1 uM ATP, 10 uM PDKtide, 4 h; read-out: CDC7 ADP-Glo PDKtide IC50
METRIC NAME: IC50

- COMPOUND: "Cc1cnn(C[C@H]2CNC(=O)c3sc(-c4cn[nH]c4)c4c3N2CCO4)c1 [Compound 42]"
  IC50: "> 10 nM"
- COMPOUND: "COC[C@H]1CN2C[C@@H](F)Cc3c(-c4cn[nH]c4)sc(c32)C(=O)N1 (single isomer, unassigned) [Compound 125]"
  IC50: "< 1 nM"
- COMPOUND: "O=C1NC2(CCOCC2)CN2CCOc3c(-c4cn[nH]c4)sc1c32 [Compound 64]"
  IC50: "< 1 nM"
- COMPOUND: "COC[C@@H]1[C@H](C2CCC2)NC(=O)c2sc(-c3cn[nH]c3)c3c2N1CCO3 (single isomer, unassigned) [Compound 99]"
  IC50: "1 to 10 nM"
- COMPOUND: "O=C1NC[C@H](C2CCOCC2)N2CCOc3c(-c4cn[nH]c4)sc1c32 (single isomer, unassigned) [Compound 28]"
  IC50: "> 10 nM"

Req: Dear colleague, I am looking for the recorded IC50 of the following compound: O=C1NC[C@H](COCc2ccccc2)N2CCOc3c(-c4cn[nH]c4)sc1c32 [Compound 35]
Resp: 1 to 10 nM

Req: Recorded IC50 of O=C1NC(C2CCCCO2)CN2CCCc3c(-c4cn[nH]c4)sc1c32 (single isomer, unassigned) [Compound 110] , please.
Resp: < 1 nM

Req: Sample CC1(C)NC(=O)c2sc(-c3ccncc3)c3c2N1CCO3 [Compound 2] — what was its IC50?
Resp: < 1 nM

###

Target: Full length human CDC7 protein co-expressed with DBF4 (Homo sapiens)
Construct: Full length human CDC7 protein co-expressed with DBF4; purchased SignalChem (China)
Assay: CDC7 kinase biochemical assay (ADP-Glo, PDKtide substrate)
Conditions: 0.1 nM CDC7/DBF4, 1 uM ATP, 10 uM PDKtide, 4 h; read-out: CDC7 ADP-Glo PDKtide IC50
Measured IC50 of individual entries

Recorded results for 5 compounds are shown here.
- COMPOUND: "CC1(C)NC(=O)c2sc(-c3c[nH]c4ncncc34)c3c2N1CCO3"
  RECORDED RESULT: "1 to 10 nM"
- COMPOUND: "O=C1N[C@@H](C2CCC2)[C@H](CO)N2CCOc3c(-c4cn[nH]c4)sc1c32"
  RECORDED RESULT: "< 1 nM"
- COMPOUND: "CC1(C)NC(=O)c2sc(-c3c[nH]c4ncccc34)c3c2N1CCO3"
  RECORDED RESULT: "1 to 10 nM"
- COMPOUND: "O=C1NC(C2CC(F)(F)C2)CN2CC(F)Cc3c(-c4cn[nH]c4)sc1c32 (single isomer, unassigned) [Compound 130]"
  RECORDED RESULT: "< 1 nM"
- COMPOUND: "COC1(C[C@@H]2CNC(=O)c3sc(-c4cn[nH]c4)c4c3N2CCC4)CC1"
  RECORDED RESULT: "< 1 nM"

Req: Consider the compound CN1CC(F)(F)C[C@H]1[C@H]1CN2CC(F)(F)Cc3c(-c4cn[nH]c4)sc(c32)C(=O)N1 and give its measured IC50.
Resp: < 1 nM

Req: May I ask what IC50 has been recorded for C[C@H]1CNC(=O)c2sc(-c3cn[nH]c3)c3c2N1CCO3 ?
Resp: < 1 nM

Req: Recorded IC50 for C[C@@H]1CNC(=O)c2sc(-c3ccncc3)c3c2N1C(=O)CO3 , please?
Resp: 1 to 10 nM

Req: Value lookup for IC50; key = O=C1N[C@@H](C2CCOCC2)CN2CCOc3c(-c4cn[nH]c4)sc1c32
Resp: < 1 nM

###

Biological target: Full length human CDC7 protein co-expressed with DBF4 (Homo sapiens)
Construct: Full length human CDC7 protein co-expressed with DBF4; purchased SignalChem (China)
Test: CDC7 kinase biochemical assay (ADP-Glo, PDKtide substrate)
Conditions: 0.1 nM CDC7/DBF4, 1 uM ATP, 10 uM PDKtide, 4 h; read-out: CDC7 ADP-Glo PDKtide IC50
Below, each entry is listed alongside its reported IC50.

Solved cases below.
- COMPOUND: "C[C@H]1CN2CCOc3c(-c4ccncc4)sc(c32)C(=O)N1 [Compound 15]"
  IC50: "< 1 nM"
- COMPOUND: "COC[C@H]1[C@@H](C2CCC2)NC(=O)c2sc(-c3cn[nH]c3)c3c2N1CCO3 (single isomer, unassigned) [Compound 98]"
  IC50: "1 to 10 nM"
- COMPOUND: "O=C1NC([C@H]2[C@@H]3COC[C@@H]32)CN2CC(F)(F)Cc3c(-c4cn[nH]c4)sc1c32 (single isomer, unassigned) [Compound 123]"
  IC50: "< 1 nM"
- COMPOUND: "CC(C)(O)C[C@@H]1CN2CC(F)(F)Oc3c(-c4cn[nH]c4)sc(c32)C(=O)N1 [Compound 117]"
  IC50: "< 1 nM"
- COMPOUND: "O=C1N[C@@H](CN2CCC2)CN2CCOc3c(-c4cn[nH]c4)sc1c32 [Compound 40]"
  IC50: "1 to 10 nM"
- COMPOUND: "O=C1N[C@H](CN2CCOCC2)CN2CC(F)(F)Cc3c(-c4cn[nH]c4)sc1c32 [Compound 134]"
  IC50: "1 to 10 nM"

Req: Form field - read-out: IC50; system: Full length human CDC7 protein co-expressed with DBF4 (Homo sapiens); submitted item: C[C@H]1CN2C(=O)COc3c(-c4cn[nH]c4)sc(c32)C(=O)N1 [Compound 20]
Resp: < 1 nM

Req: Full length human CDC7 protein co-expressed with DBF4 (Homo sapiens) / IC50 / O=C1N[C@@H]([C@@H]2CC(F)(F)CN2)CN2CC(F)(F)Cc3c(-c4cn[nH]c4)sc1c32 [Compound 135] : value?
Resp: < 1 nM

Req: Lab note: need IC50 with Full length human CDC7 protein co-expressed with DBF4 (Homo sapiens) for entry O=C1NC(C2CC(F)(F)C2)CN2CC(F)(F)Cc3c(-c4cn[nH]c4)sc1c32 (single isomer, unassigned) [Compound 114] , please look it up.
Resp: < 1 nM

Req: For the record O=C1N[C@H](CO)CN2CCOc3c(-c4cn[nH]c4)sc1c32 [Compound 39] , what value of IC50 is listed for Full length human CDC7 protein co-expressed with DBF4 (Homo sapiens)?
Resp: < 1 nM

Req: Form field: IC50 recorded for CC(=O)NC[C@@H]1COc2c(-c3cn[nH]c3)sc3c2N1CCNC3=O [Compound 57] with Full length human CDC7 protein co-expressed with DBF4 (Homo sapiens) (enter value)
Resp: < 1 nM

Req: # returns recorded IC50 (system: Full length human CDC7 protein co-expressed with DBF4 (Homo sapiens)) for CNC[C@H]1CN2CCOc3c(-c4cn[nH]c4)sc(c32)C(=O)N1 [Compound 47]
Resp: < 1 nM

The reported measurements were obtained from patent US20230101747A1.
